ASSAY INFO: ATG_DR4_LXR_CIS: Attagene CIS-FACTORIAL HepG2 Assay for human Liver X Receptor (LXR), DR4 submotif (AID 2282929)
EXPERIMENTAL SETUP: HepG2 Attagene DR4 cis-reporter, mRNA transcription; actives raise or lower the signal
Activity calls are given as the source filed them. Rule for the calls: active = hit-call score of the fitted dose curve at least 0.9, where 1 is the maximum; inactive = score below 0.9.
Reply using exactly one outcome from T (active), F (inactive)

Some entries whose results are on file:
{"columns": ["COMPOUND", "CLASS ASSIGNMENT"],
 "data": [
  ["C1CCC(NC2CCCCC2)CC1", "F"],
  ["ClCc1cccnc1", "F"],
  ["Cc1cc(Cl)ccc1O[C@H](C)C(=O)O", "F"],
  ["CCOP(=S)(OCC)Oc1nc(Cl)c(Cl)cc1Cl", "T"]
]}

Continue with the compound presented below.
Could you check what this test reported for COC(=O)Cc1ccccc1 ?
F
